- measured_target: Recombinant human cathepsin L (Homo sapiens, UniProt P07711)
- Construct: made in house
- Sequence (P07711 114-333): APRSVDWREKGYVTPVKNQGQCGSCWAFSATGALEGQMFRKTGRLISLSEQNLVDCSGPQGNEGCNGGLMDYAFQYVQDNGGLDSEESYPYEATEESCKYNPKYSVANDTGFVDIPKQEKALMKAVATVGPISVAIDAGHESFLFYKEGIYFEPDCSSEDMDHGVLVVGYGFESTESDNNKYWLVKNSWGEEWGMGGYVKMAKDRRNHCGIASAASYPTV
- measurement_notes: Recombinant cathepsin inhibition, gel-based competition with GB123 probe
- Assay type: biochemical
- run_parameters: Table S2; three independent competition gel-based experiments; read-out: CTSL (IC50)
Task for the reader: assign each of the following compounds its reported IC50.

Qu. Identify measured IC50 obtained with Recombinant human cathepsin L (Homo sapiens, UniProt P07711) for Cc1cccc(C)c1C(=O)OCC(=O)[C@H](CCCCN)NC(=O)[C@H](Cc1ccccc1)NC(=O)OCc1ccccc1 [GB111-NH2, reference compound] .
Ans. 0.25 µM

Qu. Retrieve IC50 on Recombinant human cathepsin L (Homo sapiens, UniProt P07711); query CC(C)C[C@H](NC(=O)OCC1c2ccccc2-c2ccccc21)C(=O)N1CCC[C@H]1C(=O)OCC(=O)CNC(=O)[C@H](CCCCNC(=O)OC(C)(C)C)N[C@@H](c1ccc(-c2ccc(S(C)(=O)=O)cc2)cc1)C(F)(F)F [GD29]
Ans. 1.6 µM

Qu. Report the value of IC50 obtained on Recombinant human cathepsin L (Homo sapiens, UniProt P07711) for CC(C)C[C@H](N[C@@H](c1ccc(-c2ccc(S(C)(=O)=O)cc2)cc1)C(F)(F)F)C(=O)NCC(=O)COC(=O)[C@@H]1CCCN1C(=O)[C@H](CC(C)C)NC(=O)OCC1c2ccccc2-c2ccccc21 [GD20] .
Ans. > 10 µM

Qu. Recall the reported IC50 of Cc1cccc(C)c1C(=O)OCC(=O)CNC(=O)[C@H](CC(C)C)N[C@@H](c1ccc(-c2ccc(S(C)(=O)=O)cc2)cc1)C(F)(F)F [GD7] on Recombinant human cathepsin L (Homo sapiens, UniProt P07711) and write it down.
Ans. > 5 µM

Qu. Return reported IC50 for target or system Recombinant human cathepsin L (Homo sapiens, UniProt P07711), item Cc1cccc(C)c1C(=O)OCC(=O)CNC(=O)[C@@H]1CCCN1C(=O)CNC(=O)OCc1ccccc1 [GD16] .
Ans. > 5 µM

Qu. Specify the recorded IC50 for CC(C)C[C@H](NC(=O)OCC1c2ccccc2-c2ccccc21)C(=O)N1CCC[C@H]1C(=O)OCC(=O)CNC(=O)[C@H](CC1CCCCC1)N[C@@H](c1ccc(-c2ccc(S(C)(=O)=O)cc2)cc1)C(F)(F)F [GD28] , system: Recombinant human cathepsin L (Homo sapiens, UniProt P07711).
Ans. > 5 µM

Qu. Provide IC50, recorded with Recombinant human cathepsin L (Homo sapiens, UniProt P07711), of C#CCNC(=O)[C@H](CC(C)C)N[C@@H](c1ccc(-c2ccc(S(=O)(=O)NC(=O)OC(C)(C)C)cc2)cc1)C(F)(F)F [GD33]
Ans. 4.4 µM

Qu. State IC50 (Recombinant human cathepsin L (Homo sapiens, UniProt P07711)) of O=C(CNC(=O)[C@@H]1CCCN1C(=O)CNC(=O)OCc1ccccc1)CSc1c(F)c(F)cc(F)c1F [GD17] .
Ans. > 5 µM

Qu. GET IC50 | system: Recombinant human cathepsin L (Homo sapiens, UniProt P07711) | item: CC(C)(F)C[C@H](N[C@@H](c1ccc(-c2ccc(S(C)(=O)=O)cc2)cc1)C(F)(F)F)C(=O)NC1(C#N)CC1 [ODN, odanacatib, reference compound]
Ans. > 10 µM

Qu. Fill: IC50 (Recombinant human cathepsin L (Homo sapiens, UniProt P07711)) for this compound CC(C)C[C@H](N[C@@H](c1ccc(-c2ccc(S(=O)(=O)NC(=O)OC(C)(C)C)cc2)cc1)C(F)(F)F)C(=O)NCC(=O)COC(=O)[C@@H]1CCCN1C(=O)[C@H](CC(C)C)NC(=O)OCC1c2ccccc2-c2ccccc21 [GD31]
Ans. > 20 µM

###

- measured_target: Recombinant human cathepsin B (Homo sapiens, UniProt P07858)
- Construct: made in house
- measurement_notes: Recombinant cathepsin inhibition, gel-based competition with GB123 probe
- Type: biochemical
- run_parameters: Table S2; three independent competition gel-based experiments; read-out: CTSB (IC50)
Consider the following compounds; for each one, report its pIC50.
Just so you know, pIC50 here is -log10 of the concentration in molar units; reply with that number alone.

Qu. Look up pIC50 of `Cc1cccc(C)c1C(=O)OCC(=O)[C@H](CCCCN)NC(=O)[C@@H]1CCCN1C(=O)CNC(=O)OCc1ccccc1` and report it.
Ans. 5.40

Qu. Fill in pIC50 for record `CC(C)C[C@H](N[C@@H](c1ccc(-c2ccc(S(C)(=O)=O)cc2)cc1)C(F)(F)F)C(=O)NCC(=O)COc1c(F)c(F)cc(F)c1F`
Ans. 5.66

Qu. Provide measured pIC50 value, entry: `CC(C)C[C@H](N[C@@H](c1ccc(-c2ccc(NC(=O)OC(C)(C)C)cc2)cc1)C(F)(F)F)C(=O)NCC(=O)COC(=O)[C@@H]1CCCN1C(=O)[C@H](CC(C)C)NC(=O)OCC1c2ccccc2-c2ccccc21`
Ans. 5.22

Qu. // Input: `CC(C)C[C@H](N[C@@H](c1ccc(-c2ccc(S(C)(=O)=O)cc2)cc1)C(F)(F)F)C(=O)NCC(=O)CSc1c(F)c(F)cc(F)c1F` . Output its pIC50 only.
Ans. 5.29

Qu. Specify reported pIC50 for the compound shown: `Cc1cccc(C)c1C(=O)OCC(=O)[C@H](CCCCN)NC(=O)[C@H](CC(C)C)NC(=O)CNC(=O)OCc1ccccc1`
Ans. 6.00

###

- measured_target: Recombinant human cathepsin L (Homo sapiens)
- Construct: made in house
- measurement_notes: Recombinant cathepsin inhibition, gel-based competition with GB123 probe
- Format: biochemical
- run_parameters: Table S2; three independent competition gel-based experiments; read-out: CTSL (IC50)
- Description: In-gel fluorescence analysis was used to detect the residual activity of the cathepsins by applying pan-cathepsin probe GB123 to detect the stable enzyme–probe complex. This approach is used for testing inhibition and selectivity.[37],[41] […]
pIC50: −log10 of the molar value.
experimental_readout: pIC50

Qu. For the compound `NCCCC[C@H](NC(=O)[C@H](Cc1ccccc1)NC(=O)OCc1ccccc1)C(=O)CSc1c(F)c(F)cc(F)c1F` , report pIC50.
Ans. 6.72

Qu. State its pIC50 for this compound: `CC(C)C[C@H](N[C@@H](c1ccc(-c2ccc(S(C)(=O)=O)cc2)cc1)C(F)(F)F)C(=O)NCC(=O)COC(=O)[C@@H]1CCCN1C(=O)[C@H](CCC(N)=O)NC(=O)OCC1c2ccccc2-c2ccccc21`
Ans. < 5.00

Qu. Give the value of pIC50 reported for the following: `NCCCC[C@H](NC(=O)[C@@H]1CCCN1C(=O)CNC(=O)OCc1ccccc1)C(=O)CSc1c(F)c(F)cc(F)c1F`
Ans. 5.70

Qu. For the compound `Cc1cccc(C)c1C(=O)OCC(=O)CNC(=O)[C@H](CC(C)(C)F)N[C@@H](c1ccc(-c2ccc(NC(=O)OC(C)(C)C)cc2)cc1)C(F)(F)F` , give its reported pIC50.
Ans. < 5.30

Qu. Name the recorded pIC50 of the item `CC(C)C[C@H](N[C@@H](c1ccc(-c2ccc(NC(=O)OC(C)(C)C)cc2)cc1)C(F)(F)F)C(=O)NCC(=O)COC(=O)[C@@H]1CCCN1C(=O)[C@H](CC(C)C)NC(=O)OCC1c2ccccc2-c2ccccc21` in your answer.
Ans. < 5.30

Qu. Supply pIC50 value. Item: `CC(C)C[C@H](N[C@@H](c1ccc(-c2ccc(CCNC(=O)OC(C)(C)C)cc2)cc1)C(F)(F)F)C(=O)NCC(=O)COC(=O)[C@@H]1CCCN1C(=O)[C@H](CC(C)C)NC(=O)OCC1c2ccccc2-c2ccccc21`
Ans. < 5.30

###

- measured_target: Recombinant human cathepsin S (Homo sapiens, UniProt P25774)
- Construct: made in house
- Sequence (P25774 115-331): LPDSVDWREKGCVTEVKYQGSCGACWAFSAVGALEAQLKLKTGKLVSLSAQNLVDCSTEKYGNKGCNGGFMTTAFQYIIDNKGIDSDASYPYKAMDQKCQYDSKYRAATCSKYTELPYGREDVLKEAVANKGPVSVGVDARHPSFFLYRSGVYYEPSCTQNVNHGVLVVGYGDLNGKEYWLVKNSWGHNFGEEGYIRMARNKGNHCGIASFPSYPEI
- measurement_notes: Recombinant cathepsin inhibition, gel-based competition with GB123 probe
- Type: biochemical
- run_parameters: Figure 2, read-out: IC50 [μM] CTSS
experimental_readout: IC50 (µM)
State the answer as a number, implicitly in µM.

Qu. Please report IC50 for the following compound: `CC(C)C[C@H](N[C@@H](c1ccc(-c2ccc(S(C)(=O)=O)cc2)cc1)C(F)(F)F)C(=O)NCC(=O)COC(=O)[C@@H]1CCCN1C(=O)[C@H](CCC(N)=O)NC(=O)OCC1c2ccccc2-c2ccccc21`
Ans. 8.3

Qu. For the compound `CC(C)C[C@H](N[C@@H](c1ccc(-c2ccc(S(C)(=O)=O)cc2)cc1)C(F)(F)F)C(=O)NCC(=O)COC(=O)[C@@H]1CCCN1C(=O)[C@H](CC(C)C)NC(=O)OCC1c2ccccc2-c2ccccc21` , give its measured IC50 value.
Ans. 13

###

- measured_target: Recombinant human cathepsin K (Homo sapiens, UniProt P43235)
- Construct: made in house
- Sequence (P43235 115-329): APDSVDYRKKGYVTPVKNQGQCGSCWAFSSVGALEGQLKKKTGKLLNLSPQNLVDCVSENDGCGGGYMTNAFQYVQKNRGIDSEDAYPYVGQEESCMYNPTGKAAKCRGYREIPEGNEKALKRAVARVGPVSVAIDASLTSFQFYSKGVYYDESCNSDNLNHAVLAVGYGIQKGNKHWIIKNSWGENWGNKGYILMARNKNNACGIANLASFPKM
- measurement_notes: Recombinant cathepsin inhibition, gel-based competition with GB123 probe
- Format: biochemical
- run_parameters: Table S2; three independent competition gel-based experiments; read-out: CTSK (IC50)
experimental_readout: pIC50
# log scale: pIC50 equals minus log10 of the concentration in mol/L

Qu. Provide one value: measured pIC50 of `Cc1cccc(C)c1C(=O)OCC(=O)[C@H](CCCCN)NC(=O)[C@H](CC(C)C)NC(=O)CNC(=O)OCc1ccccc1`
Ans. 6.10

Qu. Report measured pIC50; entry is `CC(C)C[C@H](N[C@@H](c1ccc(-c2ccc(NC(=O)OC(C)(C)C)cc2)cc1)C(F)(F)F)C(=O)NCC(=O)COC(=O)[C@@H]1CCCN1C(=O)[C@H](CC(C)C)NC(=O)OCC1c2ccccc2-c2ccccc21`
Ans. 5.85

Qu. Return pIC50 (reported value) for this molecule: `CC(C)C[C@H](N[C@@H](c1ccc(-c2ccc(S(C)(=O)=O)cc2)cc1)C(F)(F)F)C(=O)NCC(=O)COc1c(F)c(F)cc(F)c1F`
Ans. 6.17

Qu. Tell me measured pIC50 for `Cc1cccc(C)c1C(=O)OCC(=O)CNC(=O)[C@H](CC(C)C)N[C@@H](c1ccc(-c2ccc(S(C)(=O)=O)cc2)cc1)C(F)(F)F` please.
Ans. 6.18
